- System Tested: hACC2 (Homo sapiens)
- Construct: delete amino acids 1-148 and add Met-Gly in front of Lys149 in the final product; His tag (from pET30a) (C)
- Sequence (O00763 with tags, fused parts or gaps): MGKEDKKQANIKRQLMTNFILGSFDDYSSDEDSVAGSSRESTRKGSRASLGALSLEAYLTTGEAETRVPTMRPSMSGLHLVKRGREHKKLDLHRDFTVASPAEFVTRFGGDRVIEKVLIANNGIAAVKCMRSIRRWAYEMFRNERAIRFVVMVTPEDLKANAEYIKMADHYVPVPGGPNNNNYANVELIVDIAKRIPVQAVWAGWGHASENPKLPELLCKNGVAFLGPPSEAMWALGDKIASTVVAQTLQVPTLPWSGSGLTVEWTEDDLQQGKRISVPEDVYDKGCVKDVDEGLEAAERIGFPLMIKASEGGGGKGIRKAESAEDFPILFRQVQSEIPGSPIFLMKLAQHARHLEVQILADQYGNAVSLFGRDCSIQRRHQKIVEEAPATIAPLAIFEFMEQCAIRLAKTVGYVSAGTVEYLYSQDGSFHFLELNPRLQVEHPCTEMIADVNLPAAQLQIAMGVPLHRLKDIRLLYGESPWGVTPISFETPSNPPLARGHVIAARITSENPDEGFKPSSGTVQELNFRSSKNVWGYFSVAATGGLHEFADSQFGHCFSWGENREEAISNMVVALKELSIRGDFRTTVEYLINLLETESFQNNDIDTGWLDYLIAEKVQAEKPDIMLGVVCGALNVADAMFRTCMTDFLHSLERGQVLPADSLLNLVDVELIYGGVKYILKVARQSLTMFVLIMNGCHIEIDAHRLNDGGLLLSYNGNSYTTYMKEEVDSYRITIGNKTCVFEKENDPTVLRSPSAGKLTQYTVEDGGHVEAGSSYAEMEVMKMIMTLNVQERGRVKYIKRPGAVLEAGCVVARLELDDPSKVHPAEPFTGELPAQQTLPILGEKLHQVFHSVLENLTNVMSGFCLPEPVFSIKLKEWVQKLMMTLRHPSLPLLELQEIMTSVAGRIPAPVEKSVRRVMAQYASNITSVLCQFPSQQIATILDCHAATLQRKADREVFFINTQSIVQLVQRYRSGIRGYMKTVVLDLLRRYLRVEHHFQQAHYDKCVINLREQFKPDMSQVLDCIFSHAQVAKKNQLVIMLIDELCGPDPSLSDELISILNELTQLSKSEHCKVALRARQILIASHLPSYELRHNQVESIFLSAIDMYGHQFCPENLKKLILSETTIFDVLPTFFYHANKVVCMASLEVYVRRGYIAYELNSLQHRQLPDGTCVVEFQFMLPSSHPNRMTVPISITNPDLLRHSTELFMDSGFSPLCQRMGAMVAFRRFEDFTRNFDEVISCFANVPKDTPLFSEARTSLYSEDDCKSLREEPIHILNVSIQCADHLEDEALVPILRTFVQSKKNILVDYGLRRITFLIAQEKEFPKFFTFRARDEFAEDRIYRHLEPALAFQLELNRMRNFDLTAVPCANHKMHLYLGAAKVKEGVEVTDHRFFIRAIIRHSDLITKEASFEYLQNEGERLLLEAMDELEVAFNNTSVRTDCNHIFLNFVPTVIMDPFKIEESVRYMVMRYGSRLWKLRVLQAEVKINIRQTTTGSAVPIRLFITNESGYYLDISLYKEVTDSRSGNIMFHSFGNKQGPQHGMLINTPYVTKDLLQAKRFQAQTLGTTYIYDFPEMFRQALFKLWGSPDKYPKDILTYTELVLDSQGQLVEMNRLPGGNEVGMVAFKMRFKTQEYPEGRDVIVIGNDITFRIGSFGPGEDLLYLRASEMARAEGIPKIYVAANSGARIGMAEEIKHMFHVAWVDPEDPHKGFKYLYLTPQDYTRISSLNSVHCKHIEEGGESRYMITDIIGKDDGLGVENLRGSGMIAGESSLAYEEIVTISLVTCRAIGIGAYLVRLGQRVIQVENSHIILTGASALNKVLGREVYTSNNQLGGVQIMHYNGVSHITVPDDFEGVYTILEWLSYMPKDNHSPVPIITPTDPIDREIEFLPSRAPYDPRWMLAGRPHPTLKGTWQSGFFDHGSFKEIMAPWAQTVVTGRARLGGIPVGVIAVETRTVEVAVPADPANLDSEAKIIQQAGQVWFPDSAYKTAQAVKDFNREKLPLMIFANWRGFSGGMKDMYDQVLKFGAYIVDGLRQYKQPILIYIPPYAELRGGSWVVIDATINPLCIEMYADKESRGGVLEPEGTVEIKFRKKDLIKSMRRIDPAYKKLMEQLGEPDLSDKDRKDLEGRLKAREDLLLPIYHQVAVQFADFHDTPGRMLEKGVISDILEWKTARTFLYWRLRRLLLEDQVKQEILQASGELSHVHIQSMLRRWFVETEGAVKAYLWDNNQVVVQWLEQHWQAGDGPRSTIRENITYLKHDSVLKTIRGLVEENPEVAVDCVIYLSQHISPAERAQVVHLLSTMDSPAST
- Test Name: Recombinant human ACC2 activity, [14C]bicarbonate incorporation
- Details: Table II; read-out: Enzyme Activity IC50 Human ACC2
pIC50: −log10 of the molar value.

Compound	System Tested	pIC50
CO[C@H]1CCCC[C@@H](c2ccccc2)OC(=O)[C@@H](C)[C@@]2(O)O[C@H]([C@@H](C)[C@H](O)[C@H]2OC)[C@@H](C)/C=C/[C@H]1OC [soraphen A, Soraphen A, reference compound]	hACC2 (Homo sapiens)	8.57
CC[N+](CC)(CCCCN(Cc1ccc2ccccc2c1)C(=O)c1sc2cccc(Cl)c2c1Cl)Cc1cc(C)cc(C)c1.[Br-] [Compound 322]	hACC2 (Homo sapiens)	6.00
CC[N+](CC)(CCCCN(Cc1ccc2ccccc2c1)C(=O)c1cc2cccc(OC)c2cc1OC)Cc1cc(C)cc(C)c1 [Compound 260]	hACC2 (Homo sapiens)	4.96
CC[N+](CC)(CCCCN(Cc1ccc2ccccc2c1)S(=O)(=O)c1cccc(Cl)c1Cl)Cc1cc(C)cc(C)c1 [Compound 237]	hACC2 (Homo sapiens)	4.30
CC[N+](CC)(CCCCN(Cc1ccc2ccccc2c1)C(=O)c1sc2c(Cl)c(OC)ccc2c1Cl)Cc1cc(C)cc(C)c1 [Compound 326]	hACC2 (Homo sapiens)	5.82
